A collection of binders and their measured koff
# measurement_target: T1, human transferrin receptor (recombinant, for surface plasmon resonance) (human, UniProt P02786 89-760)
# T1 construct: also called huTfR; human transferrin receptor-biotinylated
# T1 sequence (P02786 89-760 limits assumed): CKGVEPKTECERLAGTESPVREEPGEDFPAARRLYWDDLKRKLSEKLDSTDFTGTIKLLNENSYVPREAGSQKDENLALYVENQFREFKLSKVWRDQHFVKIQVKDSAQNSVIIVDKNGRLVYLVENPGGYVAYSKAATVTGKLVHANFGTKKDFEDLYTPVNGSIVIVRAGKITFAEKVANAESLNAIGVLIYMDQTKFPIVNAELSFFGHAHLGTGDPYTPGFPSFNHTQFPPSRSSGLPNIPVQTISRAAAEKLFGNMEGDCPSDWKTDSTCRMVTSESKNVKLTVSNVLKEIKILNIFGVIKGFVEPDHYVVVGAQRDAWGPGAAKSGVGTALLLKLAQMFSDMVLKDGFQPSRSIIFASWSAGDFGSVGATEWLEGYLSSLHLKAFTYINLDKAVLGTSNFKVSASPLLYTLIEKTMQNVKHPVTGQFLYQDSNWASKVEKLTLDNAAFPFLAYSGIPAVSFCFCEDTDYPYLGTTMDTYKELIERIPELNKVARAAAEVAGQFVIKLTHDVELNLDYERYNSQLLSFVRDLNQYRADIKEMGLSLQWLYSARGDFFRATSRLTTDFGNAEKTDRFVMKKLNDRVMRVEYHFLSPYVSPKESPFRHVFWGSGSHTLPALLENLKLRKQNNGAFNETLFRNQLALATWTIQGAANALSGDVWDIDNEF
# assay_name: SPR 25C
observation_type: koff (s⁻¹)

2/99 VH15/VL14 (antibody, V domains shown) VH: QQLQESGPGLVKPSETLSLTCTVSGFSLSSYAMSWVRQPPGKGLEWIGYIWSGGSTDYNPSLKSRVTISVDTSKNQVSLKLSSVTAADTAVYYCARRYGTSYPDYGDANGFDPWGQGTLVTVSS VL: DIVMTQSPDSLAVSLGERATINCKSSQSISSYLSWYQQKPGQRPKLLIYRASTLASGVPDRFSGSGSGTDFTLTISSLQAEDVAVYYCQQSYSSSNVDNTFGGGTKVEIK    0.00194
2/99 VH5/VL1 (antibody, V domains shown) VH: QSMEETGGGLIQPGGSLRLSCAASGFSLSSYAMSWVRQAPGKGLEWVGYIWSGGSTDYADSVKGRFTISRDNSKNTLYLQMNSLRAEDTAVYYCARRYGTSYPDYGDANGFDPWGPGTLVTVSS VL: DIQMTQSPSSLSASVGDRVTITCRASQSISSYLNWYQQKPGKAPKLLIYRASSLQSGVPSRFSGSGSGTDFTLTISSLQPEDFATYYCQQSYSSSNVDNTFGGGTKVEIK    0.001
2/99 VH21/VL1 (antibody, V domains shown) VH: QSMQESGPGLVKPSQTLSLTCTVSGFSLSSYAMSWIRQHPGKGLEWIGYIWSGGSTDYASWAKSRVTISVDTSKNQVSLKLSSVTAADTAVYYCARRYGTSYPDYGDANGFDPWGQGTLVTVSS VL: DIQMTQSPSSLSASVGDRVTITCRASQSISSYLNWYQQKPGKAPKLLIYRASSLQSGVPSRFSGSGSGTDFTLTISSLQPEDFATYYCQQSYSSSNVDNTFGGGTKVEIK    0.00771
